- target system: T1, Anti-CD28 Fab (SEQ ID NOs: 202, 203)
- T1 construct: biotinylated and captured on neutravidin coated plates in the phage ELISA
- T1 sequence (VH, as listed by the source, chain 1 of 2): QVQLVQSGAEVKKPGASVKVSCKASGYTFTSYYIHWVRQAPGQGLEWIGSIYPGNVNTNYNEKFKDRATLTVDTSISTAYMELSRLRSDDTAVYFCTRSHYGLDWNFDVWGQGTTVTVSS
- T1 sequence (VL, as listed by the source, chain 2 of 2): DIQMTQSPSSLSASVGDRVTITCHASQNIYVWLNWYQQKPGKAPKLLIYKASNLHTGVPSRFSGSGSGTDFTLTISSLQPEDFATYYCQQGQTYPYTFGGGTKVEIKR
- test details: phage binding ELISA, Fab on plate;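 also: clonal phage supernatant ELISA, wells preincubated with CD28 antigen or blocking buffer only, then bound phage detected using HRP-linked anti-M13 antibody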
reported metric: Anti-CD28 Fab (SEQ ID NOs: 202, 203) signal
// no unit string in output, number only

The recorded Anti-CD28 Fab (SEQ ID NOs: 202, 203) signal for entry TCSAGATYAWPACY [Phage-1002] equals 1.84
